# tested_target: CD112R (human) (UniProt Q6DKI7)
# Sequence (Q6DKI7 whole entry): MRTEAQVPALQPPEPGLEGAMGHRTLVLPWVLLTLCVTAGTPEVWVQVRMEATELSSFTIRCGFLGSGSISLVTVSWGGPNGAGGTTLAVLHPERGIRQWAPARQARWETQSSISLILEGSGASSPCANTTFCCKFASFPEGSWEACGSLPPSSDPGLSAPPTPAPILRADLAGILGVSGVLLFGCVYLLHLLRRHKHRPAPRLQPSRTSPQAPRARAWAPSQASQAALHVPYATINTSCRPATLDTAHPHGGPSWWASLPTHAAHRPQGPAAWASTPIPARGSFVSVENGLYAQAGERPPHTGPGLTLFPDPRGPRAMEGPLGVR
# experiment: flow cytometry, cells expressing target, 25 nM
Values of MFI at 25 nM greater than or equal to 900 MFI map to satisfied; values below map to not satisfied.

INSERT INTO measurements (binder, group_label) VALUES
  ('CD155 variant IgV-Fc T15S, P18S, Y30H, Q32L, Q62R, L79P, F91S, T107M (Fc fusion, not shown: a dimerising Fc or GST; small tags and cut ends) PGTGDVVVQAPSQVSGFLGDSVTLPCHLLVPNMEVTHVSQLTWARHGESGSMAVFHQTRGPSYSESKRLEFVAARPGAELRNASLRMSGLRVEDEGNYTCLFVMFPQGSRSVDIWL', 'satisfied'),
  ('CD155 variant IgV-Fc V9L, P18F, T45A, S65A, S67V, R78K, L79V, F91S, T107M, S114T (Fc fusion, not shown: a dimerising Fc or GST; small tags and cut ends) PGTGDLVVQAPTQVFGFLGDSVTLPCYLQVPNMEVTHVSQLAWARHGESGSMAVFHQTQGPAYVESKRLEFVAAKVGAELRNASLRMSGLRVEDEGNYTCLFVMFPQGSRTVDIWL', 'not satisfied'),
  ('CD155 variant IgV-Fc P18S, H59R, A76G, R78S, L79P (Fc fusion, not shown: a dimerising Fc or GST; large carriers; small tags and cut ends) PGTGDVVVQAPTQVSGFLGDSVTLPCYLQVPNMEVTHVSQLTWARHGESGSMAVFRQTQGPSYSESKRLEFVGASPGAELRNASLRMFGLRVEDEGNYTCLFVTFPQGSRSVDIWL', 'satisfied');
